Tested on: NCI-H1793
Run description: relative viability (nuclei count vs DMSO), 5 days (fraction); higher = more cells survive
Reported conditions: first compound 5 µM
# label = Satisfied if relative viability < 0.8 else Not satisfied

Compound	Tested system	Label
O=C(O)CCCCC(CCSCc1ccccc1)SCc1ccccc1 (stereo unspecified) [CPI-613] + Nc1nc2[nH]cc(CCc3ccc(C(=O)N[C@@H](CCC(=O)O)C(=O)O)cc3)c2c(=O)[nH]1 [Pemetrexed] (partner 0.2 µM)	NCI-H1793	Not satisfied
O=C(O)CCCCC(CCSCc1ccccc1)SCc1ccccc1 (stereo unspecified) [CPI-613] + CS(=O)(=O)N1CCN(Cc2cc3nc(-c4cccc5[nH]ncc45)nc(N4CCOCC4)c3s2)CC1 [Pictilisib] (partner 1 µM)	NCI-H1793	Satisfied
O=C(O)CCCCC(CCSCc1ccccc1)SCc1ccccc1 (stereo unspecified) [CPI-613] + COc1cc2c(Oc3ccc(NC(=O)C4(C(=O)Nc5ccc(F)cc5)CC4)cc3F)ccnc2cc1OCCCN1CCOCC1 [Foretinib] (partner 0.25 µM)	NCI-H1793	Satisfied

## Task Quick check: does O=C(O)CCCCC(CCSCc1ccccc1)SCc1ccccc1 (stereo unspecified) [CPI-613] + CC(=O)Nc1cccc(-n2c(=O)n(C3CC3)c(=O)c3c(Nc4ccc(I)cc4F)n(C)c(=O)c(C)c32)c1 [Trametinib] (partner 0.02 µM) have relative viability under 0.8?
## Result Satisfied

###

Exercise: for every item that follows, state its recorded relative viability.
Tested on: SW 900
Run description: relative viability (nuclei count vs DMSO), 5 days (fraction); higher = more cells survive
Reported conditions: first compound 0.02 µM
Answers are plain numbers.

Below: 3 compounds and their reported relative viability.
Compound	relative viability
CC(=O)O[C@@]12CO[C@@H]1C[C@H](O)[C@@]1(C)C(=O)[C@H](O)C3=C(C)[C@@H](OC(=O)[C@H](O)[C@@H](NC(=O)OC(C)(C)C)c4ccccc4)C[C@@](O)([C@@H](OC(=O)c4ccccc4)[C@H]21)C3(C)C [Docetaxel] + COc1cccc2cc(-c3nc([C@H]4CC[C@H](C(=O)O)CC4)n4ncnc(N)c34)[nH]c12 [OSI-027] (partner 0.5 µM)	0.109
CC(=O)O[C@@]12CO[C@@H]1C[C@H](O)[C@@]1(C)C(=O)[C@H](O)C3=C(C)[C@@H](OC(=O)[C@H](O)[C@@H](NC(=O)OC(C)(C)C)c4ccccc4)C[C@@](O)([C@@H](OC(=O)c4ccccc4)[C@H]21)C3(C)C [Docetaxel] + NC(=O)Nc1cc(-c2cccc(F)c2)sc1C(=O)N[C@H]1CCCNC1 [AZD7762] (partner 0.2 µM)	0.161
CC(=O)O[C@@]12CO[C@@H]1C[C@H](O)[C@@]1(C)C(=O)[C@H](O)C3=C(C)[C@@H](OC(=O)[C@H](O)[C@@H](NC(=O)OC(C)(C)C)c4ccccc4)C[C@@](O)([C@@H](OC(=O)c4ccccc4)[C@H]21)C3(C)C [Docetaxel] + Cc1cc(Nc2cc(N3CCN(C)CC3)nc(Sc3ccc(NC(=O)C4CC4)cc3)n2)n[nH]1 [Tozasertib] (partner 0.1 µM)	0.173

## Task Field request: relative viability | item: CC(=O)O[C@@]12CO[C@@H]1C[C@H](O)[C@@]1(C)C(=O)[C@H](O)C3=C(C)[C@@H](OC(=O)[C@H](O)[C@@H](NC(=O)OC(C)(C)C)c4ccccc4)C[C@@](O)([C@@H](OC(=O)c4ccccc4)[C@H]21)C3(C)C [Docetaxel] + COc1cc2c(Oc3ccc(NC(=O)C4(C(=O)Nc5ccc(F)cc5)CC4)cc3F)ccnc2cc1OCCCN1CCOCC1 [Foretinib] (partner 0.25 µM)
## Result 0.175
